Target Of Assay: T1, PSMA Fab
T1 construct: also called Anti-PSMA Fab; 006 PSMA Fab
Run Description: clonal phage ELISA; biotinylated PSMA Fab on neutravidin plate, blocking buffer alone; anti-M13 HRP detection;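 note: crude clonal phage supernatants added without washing to wells pretreated with blocking buffer with or without PSMA antigen, short incubation, then washed before detecting bound phage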
Metric Name: Phage binding ELISA signal, Anti-PSMA Fab
Lab note: write the figure by itself, no unit.

Given the entry VERACRPVWMCQGF [Phage-3417] , report its measured Phage binding ELISA signal, Anti-PSMA Fab.
1.78

Given the entry MLPYCVPQWMCMGF [Phage-3419] , report its measured Phage binding ELISA signal, Anti-PSMA Fab.
1.78

Given the entry DTFMCRPSWMCNGF [Phage-3409] , report its measured Phage binding ELISA signal, Anti-PSMA Fab.
1.79
